Just for reference, paper PMC9090415 is where these values come from.

# key: entry, value: pIC50
- assay system: P. falciparum apicoplast DNA polymerase (Pf-apPOL) (Plasmodium falciparum, UniProt Q8ILY1)
- Sequence (Q8ILY1 entry or part of it): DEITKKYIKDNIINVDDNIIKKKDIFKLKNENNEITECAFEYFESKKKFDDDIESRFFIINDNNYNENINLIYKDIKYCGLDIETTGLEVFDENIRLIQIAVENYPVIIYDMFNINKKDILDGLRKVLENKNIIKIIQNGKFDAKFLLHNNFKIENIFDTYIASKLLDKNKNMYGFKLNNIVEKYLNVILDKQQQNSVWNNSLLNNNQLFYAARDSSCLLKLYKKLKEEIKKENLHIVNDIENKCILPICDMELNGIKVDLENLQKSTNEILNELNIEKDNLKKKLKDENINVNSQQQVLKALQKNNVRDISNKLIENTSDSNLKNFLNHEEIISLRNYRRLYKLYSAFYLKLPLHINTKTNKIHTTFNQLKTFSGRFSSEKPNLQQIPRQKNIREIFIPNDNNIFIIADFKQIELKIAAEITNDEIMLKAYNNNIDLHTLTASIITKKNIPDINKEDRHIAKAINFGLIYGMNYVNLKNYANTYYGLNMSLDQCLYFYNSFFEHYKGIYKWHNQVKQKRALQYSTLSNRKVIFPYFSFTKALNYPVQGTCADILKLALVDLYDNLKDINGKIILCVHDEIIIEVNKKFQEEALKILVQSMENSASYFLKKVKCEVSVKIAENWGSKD
- procedure details: Fluorescence-based high-throughput DNA polymerase assay (molecular beacon), primary screen and dose-response
- Assay type: biochemical
- measurement parameters: supplemental file 2, sheet IC50 nontoxic compounds; Pf-apPOL
Kindly note that pIC50 refers to -log10 of the concentration in mol/L and answer with the value alone.

Some compounds with known pIC50 results, for comparison:
compound	reported
CCCCOC(=O)CCCCCN1C(=O)C(=Cc2ccc(OC)cc2)SC1=S	4.25
O=c1cc(-c2ccccc2)oc2c(O)c(O)ccc12	4.49

Exam item: Quick one: pIC50 for `O=C1NN(c2ccc(Cl)c(Cl)c2)C(=O)/C1=C/c1ccc(-c2ccc3c(c2)C(=O)OC3)o1` ?
Marked response: 5.46

Exam item: pIC50 for CO/N=C(\C(=O)N[C@@H]1C(=O)N2C(C(=O)[O-])=C(CSc3nc(=O)c([O-])nn3C)CSC12)c1csc(N)n1.[Na+].[Na+] (stereo partly drawn) ?
Marked response: 4.73

Exam item: Consider the compound shown here: `COc1ccc(-c2c(C(F)(F)F)nn3c(=O)cc(-c4cccc([N+](=O)[O-])c4)[nH]c23)cc1` What is its recorded pIC50?
Marked response: 5.03

Exam item: Given the entry `Cc1ccc(-n2nnc(C(=O)O)c2-c2ccccn2)c(F)c1` , report its measured pIC50.
Marked response: 4.84

Exam item: If you can, please state the reported pIC50 value of `O=C(NNC(=O)c1ccc(Cl)cc1)C(=O)NNC(=O)c1ccc(Cl)cc1` .
Marked response: 5.01
